# System Name: p53 Y220C mutant (Homo sapiens, UniProt P04637, M133L/N239Y/N268D/V203A/Y220C)
# Measurement Description: Dissociation constant by nuclear magnetic resonance spectroscopy (NMR)
# Type: binding
pKd: −log10 of the molar value.

>  <Smi>
CCc1cc(Br)cc2c(CCN)c(C)[nH]c12

>  <pKd>
3.03

$$$$

* * *

# System Name: p53 Y220C mutant (Homo sapiens, UniProt P04637, M133L/N239Y/N268D/V203A/Y220C)
# Measurement Description: Dissociation constant by isothermal calorimetry (ITC)
# Type: binding
# Cond: ITC; p53-Y220C ligand complex

>  <Smi>
O=C(O)c1cc(I)c(-n2cccc2)c(I)c1O

>  <Value Units>
µM

>  <Kd>
21

$$$$

* * *

Consider the following compounds and their measured Kd readings.
# System Name: p53 Y220C mutant (Homo sapiens, UniProt P04637, M133L/N239Y/N268D/V203A/Y220C)
# Measurement Description: Dissociation constant by nuclear magnetic resonance spectroscopy (NMR)
# Type: binding
# Cond: NMR; p53-Y220C ligand complex; read-out: KD

>  <Compound>
Nc1cc(C(F)(F)F)cc(Br)c1N [Compound 11]

>  <System Name>
p53 Y220C mutant (Homo sapiens, UniProt P04637, M133L/N239Y/N268D/V203A/Y220C)

>  <Value Units>
µM

>  <Prefix Operator>
=

>  <Kd>
4800

$$$$
>  <Compound>
CN(C)CCn1cc(-c2ccc(F)cc2)c(-n2cccc2)n1 [Compound 7, PhiKan7242]

>  <System Name>
p53 Y220C mutant (Homo sapiens, UniProt P04637, M133L/N239Y/N268D/V203A/Y220C)

>  <Value Units>
µM

>  <Prefix Operator>
=

>  <Kd>
2400

$$$$
>  <Compound>
CCc1cccc2c(C3CCNCC3)c[nH]c12 [Compound 2]

>  <System Name>
p53 Y220C mutant (Homo sapiens, UniProt P04637, M133L/N239Y/N268D/V203A/Y220C)

>  <Value Units>
µM

>  <Prefix Operator>
=

>  <Kd>
470

$$$$
>  <Compound>
O=C(Nc1ccc(Cl)cc1O)C1CCNCC1 [Compound 12]

>  <System Name>
p53 Y220C mutant (Homo sapiens, UniProt P04637, M133L/N239Y/N268D/V203A/Y220C)

>  <Value Units>
µM

>  <Prefix Operator>
=

>  <Kd>
1270

$$$$
>  <Compound>
c1ccn(-c2oc(C3CC3)nc2-c2nnn[nH]2)c1 [Compound 10]

>  <System Name>
p53 Y220C mutant (Homo sapiens, UniProt P04637, M133L/N239Y/N268D/V203A/Y220C)

>  <Value Units>
µM

>  <Prefix Operator>
>

>  <Kd>
2000

$$$$
>  <Compound>
Nc1ccc(C(F)(F)F)cc1N [Compound 8]

>  <System Name>
p53 Y220C mutant (Homo sapiens, UniProt P04637, M133L/N239Y/N268D/V203A/Y220C)

>  <Value Units>
µM

>  <Prefix Operator>
>

>  <Kd>
10000

$$$$
